Ref: patent US20230183713A1

Molecular target: T1, Cre recombinase monomer with Y324M mutation
T1 chain: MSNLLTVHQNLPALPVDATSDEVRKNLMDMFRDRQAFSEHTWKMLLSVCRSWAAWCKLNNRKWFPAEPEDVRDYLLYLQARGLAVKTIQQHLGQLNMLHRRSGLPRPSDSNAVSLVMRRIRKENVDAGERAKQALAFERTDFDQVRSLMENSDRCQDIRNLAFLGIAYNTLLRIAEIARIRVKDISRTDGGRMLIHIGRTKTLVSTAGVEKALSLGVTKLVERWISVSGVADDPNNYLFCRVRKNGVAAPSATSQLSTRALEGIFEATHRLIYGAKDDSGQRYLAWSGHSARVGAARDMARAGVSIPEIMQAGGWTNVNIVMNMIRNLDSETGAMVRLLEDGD
MEASURED ENDPOINT: Median dimer activity (recombination on loxP)
The number alone won't do; follow it with the unit.

Median dimer activity (recombination on loxP) for Cre recombinase monomer with W315G mutation (protein) MSNLLTVHQNLPALPVDATSDEVRKNLMDMFRDRQAFSEHTWKMLLSVCRSWAAWCKLNNRKWFPAEPEDVRDYLLYLQARGLAVKTIQQHLGQLNMLHRRSGLPRPSDSNAVSLVMRRIRKENVDAGERAKQALAFERTDFDQVRSLMENSDRCQDIRNLAFLGIAYNTLLRIAEIARIRVKDISRTDGGRMLIHIGRTKTLVSTAGVEKALSLGVTKLVERWISVSGVADDPNNYLFCRVRKNGVAAPSATSQLSTRALEGIFEATHRLIYGAKDDSGQRYLAWSGHSARVGAARDMARAGVSIPEIMQAGGGTNVNIVMNYIRNLDSETGAMVRLLEDGD is 35%
